Where do the numbers come from? From PubChem BioAssay (EPA / NIEHS).

# TARGET_SYSTEM: Nucleoli Translocation, AR (gene 367) (UniProt P10275)
# Sequence (P10275 whole entry, looked up): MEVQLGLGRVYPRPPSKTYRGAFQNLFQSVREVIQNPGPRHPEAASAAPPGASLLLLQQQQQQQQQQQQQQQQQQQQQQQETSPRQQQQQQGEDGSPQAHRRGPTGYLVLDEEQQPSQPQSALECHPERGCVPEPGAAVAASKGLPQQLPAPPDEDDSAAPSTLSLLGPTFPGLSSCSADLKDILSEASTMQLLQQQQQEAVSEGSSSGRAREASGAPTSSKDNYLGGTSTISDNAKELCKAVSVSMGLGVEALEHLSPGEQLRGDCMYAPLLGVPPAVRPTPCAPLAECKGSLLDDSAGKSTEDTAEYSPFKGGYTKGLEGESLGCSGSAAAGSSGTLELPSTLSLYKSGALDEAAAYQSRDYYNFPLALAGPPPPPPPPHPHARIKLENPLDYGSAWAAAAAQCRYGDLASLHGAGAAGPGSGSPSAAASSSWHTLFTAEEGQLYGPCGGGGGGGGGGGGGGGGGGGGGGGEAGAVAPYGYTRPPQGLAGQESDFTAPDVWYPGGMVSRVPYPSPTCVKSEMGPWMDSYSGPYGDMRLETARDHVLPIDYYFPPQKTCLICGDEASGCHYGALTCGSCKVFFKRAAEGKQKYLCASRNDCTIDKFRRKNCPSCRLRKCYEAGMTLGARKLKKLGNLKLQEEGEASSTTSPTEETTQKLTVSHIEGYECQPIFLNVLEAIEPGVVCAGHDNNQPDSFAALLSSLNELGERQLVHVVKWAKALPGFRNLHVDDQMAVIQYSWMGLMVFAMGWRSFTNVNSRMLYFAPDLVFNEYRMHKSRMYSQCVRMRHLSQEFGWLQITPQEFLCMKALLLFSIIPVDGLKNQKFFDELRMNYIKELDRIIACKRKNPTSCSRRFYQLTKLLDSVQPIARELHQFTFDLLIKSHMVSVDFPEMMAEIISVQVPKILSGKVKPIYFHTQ
# MEASUREMENT_NOTES: UPITT_HCI_U2OS_AR_TIF2_Nucleoli_Antagonist: University of Pittsburgh U2OS Androgen Receptor-Transcriptional Intermediary Factor 2 (AR-TIF2) Antagonism High Content Imaging Assay for Nucleoli Translocation (AID 2283997)
# Description: UPITT_AR_TIF2_PPIB is a cell-based, high-content imaging assay that uses U2OS, a human osteosarcoma cell line, expressing a human androgen receptor fused to red fluorescent protein and the coactivator TIF2 fused to green fluorescent protein. UPITT_HCI_U2OS_AR_TIF2_Nucleoli_Antagonist is one of four assay components measured from the UPITT_AR_TIF2_PPIB assay. […]
Inconclusive results are not listed. Calls of active or inactive are those of the source. How the source made its calls: active means hit-call score of the fitted dose curve at least 0.9, where 1 is the maximum; inconclusive means response in the unintended direction; inactive means score below 0.9.
Possible outcomes: active, inactive

In [3]: df
Out[3]:
                                   compound  class_label
0  O=S1OCC2C(CO1)C1(Cl)C(Cl)=C(Cl)C2(Cl)C1(Cl)Cl (configuration not stated)       active
1  CCOC1Oc2ccc(OS(C)(=O)=O)cc2C1(C)C (configuration not stated)     inactive
2  C[C@H]1[C@H](c2ccc(Cl)cc2)SC(=O)N1C(=O)NC1CCCCC1       active
3      O=[N+]([O-])/N=C1\NCCN1Cc1ccc(Cl)nc1     inactive
4                  O=C(O)CCCOc1ccc(Cl)cc1Cl     inactive
5  CCC(C)(C)C(=O)OC1=C(c2ccc(Cl)cc2Cl)C(=O)OC12CCCCC2       active
6    O=[N+]([O-])c1c(Cl)c(Cl)c(Cl)c(Cl)c1Cl       active

====

# Read-out: E-selectin (Homo sapiens)
# MEASUREMENT_NOTES: BSK_3C_Eselectin: BioMAP Diversity Plus: 3C Assay for Eselectin Biomarker Activity (AID 2283015)
# TEST_CONTEXT: primary human endothelial cells (HUVEC); actives raise or lower the signal
Activity calls are given as the source filed them. The calls were made as follows: active = hit-call score of the fitted dose curve at least 0.9, where 1 is the maximum; inactive = score below 0.9.
ENDPOINT: AC50

                                    molecule  endpoint            result
 0   CCCN(CCOc1c(Cl)cc(Cl)cc1Cl)C(=O)n1ccnc1      AC50          inactive
 1        COP(=S)(OC)Oc1ccc([N+](=O)[O-])cc1      AC50   8.4 µM (active)
 2  CCCN(CCC)c1c([N+](=O)[O-])cc(C(F)(F)F)cc1[N+](=O)[O-]      AC50          inactive
 3                          CN1CSC(=S)N(C)C1      AC50  18.1 µM (active)
 4  CC(C)(C)C(O)/C(=C\c1ccc(Cl)cc1Cl)n1cncn1 (configuration not stated)      AC50    24 µM (active)
 5  CC(C)N(C(=O)COc1nnc(C(F)(F)F)s1)c1ccc(F)cc1      AC50          inactive
 6  C#CCN1C(=O)COc2cc(F)c(N3C(=O)C4=C(CCCC4)C3=O)cc21      AC50          inactive
 7              COc1nn(CSP(=S)(OC)OC)c(=O)s1      AC50          inactive
 8               CNC(=O)/C=C(\C)OP(=O)(OC)OC      AC50          inactive
 9            N#Cc1c(Cl)c(Cl)c(Cl)c(C#N)c1Cl      AC50  1.46 µM (active)
10  COc1cc(OC)nc(NC(=O)NS(=O)(=O)c2cc(NC=O)ccc2C(=O)N(C)C)n1      AC50          inactive
11    O=[N+]([O-])c1c(Cl)c(Cl)c(Cl)c(Cl)c1Cl      AC50          inactive

====

# MEASUREMENT_NOTES: CCTE_Mundy_HCI_hNP1_CellTiter: CCTE's Cell Titer-Glo 2 Assay in human neuroprogenitor cells for Viability, Mundy Lab (AID 2284241)
Results filed as inconclusive are left out. Activity calls are given as the source filed them. The calls were made as follows: active = hit-call score of the fitted dose curve at least 0.9, where 1 is the maximum; inconclusive = response in the unintended direction; inactive = score below 0.9.
Possible outcomes: label 1 for active, label 0 for inactive

MOLECULE	CLASS_LABEL
CC(C)N(C(=O)COc1nnc(C(F)(F)F)s1)c1ccc(F)cc1	label 0
CCC(C)(C)C(=O)OC1=C(c2ccc(Cl)cc2Cl)C(=O)OC12CCCCC2	label 0
CC[C@H](C)[C@H]1O[C@]2(C=C[C@@H]1C)C[C@@H]1C[C@@H](C/C=C(\C)[C@@H](O[C@H]3C[C@H](OC)[C@@H](O[C@H]4C[C@H](OC)[C@@H](O)[C@H](C)O4)[C@H](C)O3)[C@@H](C)/C=C/C=C3\CO[C@@H]4[C@H](O)C(C)=C[C@@H](C(=O)O1)[C@]34O)O2 (tested in a mixture with another compound)	label 1
CC1(C)C(C=C(Cl)Cl)C1C(=O)OC(C#N)c1ccc(F)c(Oc2ccccc2)c1 (stereo not given)	label 0
O=S1OCC2C(CO1)C1(Cl)C(Cl)=C(Cl)C2(Cl)C1(Cl)Cl (stereo not given)	label 1
O=[N+]([O-])/N=C1\NCCN1Cc1ccc(Cl)nc1	label 0
O=C(O)COc1ccc(Cl)cc1Cl	label 0
O=S(=O)(O)C(F)(F)C(F)(F)C(F)(F)C(F)(F)C(F)(F)C(F)(F)C(F)(F)C(F)(F)F	label 0
CC1(c2ccc(Oc3ccccc3)cc2)OC(=O)N(Nc2ccccc2)C1=O (stereo not given)	label 1
COP(=O)(OC)OC=C(Cl)Cl	label 0

====

# TARGET_SYSTEM: Estrogen receptor beta (Homo sapiens) (UniProt Q92731)
# Sequence (Q92731 whole entry, looked up): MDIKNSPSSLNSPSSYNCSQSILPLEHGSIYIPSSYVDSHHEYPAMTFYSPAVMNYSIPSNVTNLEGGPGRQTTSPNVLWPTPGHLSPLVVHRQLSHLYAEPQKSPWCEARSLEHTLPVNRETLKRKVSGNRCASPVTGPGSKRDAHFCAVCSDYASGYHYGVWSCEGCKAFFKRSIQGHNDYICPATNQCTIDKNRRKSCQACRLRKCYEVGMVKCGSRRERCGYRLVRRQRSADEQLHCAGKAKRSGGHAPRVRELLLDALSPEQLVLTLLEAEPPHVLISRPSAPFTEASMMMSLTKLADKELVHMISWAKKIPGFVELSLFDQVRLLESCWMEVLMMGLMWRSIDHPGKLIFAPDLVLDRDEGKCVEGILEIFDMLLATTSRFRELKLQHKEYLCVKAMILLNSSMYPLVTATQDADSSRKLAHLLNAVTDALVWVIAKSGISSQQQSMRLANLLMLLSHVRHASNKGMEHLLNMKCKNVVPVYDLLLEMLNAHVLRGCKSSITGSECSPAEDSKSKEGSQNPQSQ
# MEASUREMENT_NOTES: OT_ER_ERbERb_0480: Odyssey Thera (OT) 8-hour HEK293T Protein-Complementation Assay for Estrogen Receptor-beta/-beta Homodimer (AID 2283357);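 further: active means signal gain over DMSO baseline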
Inconclusive results are not listed. Calls of active or inactive are those of the source. Rule for the calls: active = hit-call score of the fitted dose curve at least 0.9, where 1 is the maximum; inconclusive = response in the unintended direction; inactive = score below 0.9.
Possible outcomes: t = active, f = inactive

In [3]: df
Out[3]:
                                    compound  class_label
 0                              OCCOc1ccccc1            f
 1           O=C1c2ccccc2C(=O)N1SC(Cl)(Cl)Cl            f
 2        COP(=S)(OC)Oc1ccc([N+](=O)[O-])cc1            f
 3                    O=C(Nc1ccccc1)Nc1cnns1            f
 4                          CN1CSC(=S)N(C)C1            f
 5                     COP(=O)(OC)OC=C(Cl)Cl            f
 6              Oc1cc(Cl)ccc1Oc1ccc(Cl)cc1Cl            f
 7  CCC(C)(NC(=O)c1cc(Cl)c(C)c(Cl)c1)C(=O)CCl (stereo not drawn)            f
 8  CC(C)(C)C(O)C(Oc1ccc(Cl)cc1)n1cncn1 (stereo not drawn)            t
 9          Clc1ccccc1-c1nnc(-c2ccccc2Cl)nn1            f
10                    CNC(=O)Oc1ccccc1OC(C)C            f
11  O=C(NC(=O)c1c(F)cccc1F)Nc1ccc(OC(F)(F)C(F)OC(F)(F)F)c(Cl)c1 (stereo not drawn)            f
12               COP(=S)(OC)Oc1ccc(SC)c(C)c1            f
13  CC1(c2ccc(Oc3ccccc3)cc2)OC(=O)N(Nc2ccccc2)C1=O (stereo not drawn)            f
14              COc1nn(CSP(=S)(OC)OC)c(=O)s1            f
15                      CNC(=O)CSP(=S)(OC)OC            f
16                                      N#CN            f
17   CCCN(CCOc1c(Cl)cc(Cl)cc1Cl)C(=O)n1ccnc1            f
18  CCc1ccc(C(=O)NN(C(=O)c2cc(C)cc(C)c2)C(C)(C)C)cc1            f
19                CNC(=O)Oc1cccc(N=CN(C)C)c1            f
20  CCOC1Oc2ccc(OS(C)(=O)=O)cc2C1(C)C (stereo not drawn)            f
21               CNC(=O)/C=C(\C)OP(=O)(OC)OC            f
22  CC(C)(C)C(O)/C(=C\c1ccc(Cl)cc1Cl)n1cncn1 (stereo not drawn)            f
